Reference source: ChEMBL document CHEMBL4387722

Target system: Tyrosine-protein phosphatase non-receptor type 5 (Homo sapiens, UniProt P54829)
Sequence (P54829 whole entry): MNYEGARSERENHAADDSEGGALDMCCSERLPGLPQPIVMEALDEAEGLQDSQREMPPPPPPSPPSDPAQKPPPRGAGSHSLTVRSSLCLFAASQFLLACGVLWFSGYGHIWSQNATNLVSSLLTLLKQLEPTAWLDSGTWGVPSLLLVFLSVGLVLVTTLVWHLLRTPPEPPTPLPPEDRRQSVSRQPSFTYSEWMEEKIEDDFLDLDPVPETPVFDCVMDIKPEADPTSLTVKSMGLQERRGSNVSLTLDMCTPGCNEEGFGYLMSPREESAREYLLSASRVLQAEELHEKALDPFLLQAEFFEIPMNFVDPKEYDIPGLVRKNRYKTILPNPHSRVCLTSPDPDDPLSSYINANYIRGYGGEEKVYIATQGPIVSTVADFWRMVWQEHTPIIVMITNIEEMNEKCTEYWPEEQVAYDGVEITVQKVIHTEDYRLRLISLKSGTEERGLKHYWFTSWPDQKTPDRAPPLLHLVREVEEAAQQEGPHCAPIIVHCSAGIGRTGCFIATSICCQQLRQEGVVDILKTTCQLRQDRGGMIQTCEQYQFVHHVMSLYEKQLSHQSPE
Test description: Inhibition of human PTPN5 expressed in Escherichia coli Rosetta 2 (DE3) using pNPP as substrate after 45 mins by spectrophotometric method
Assignment: determine reported IC50 for the given compounds.
Write the answer as a number in µM, unit excluded.

Tell me the measured IC50 of O=S(=O)(Nc1ccc(-c2nc3cc(NS(=O)(=O)c4cccc(Br)c4)ccc3o2)cc1)c1cccc(Br)c1 , please.
11

Tell me the measured IC50 of O=S(=O)(Nc1ccc(-c2nc3ccccc3o2)cc1)c1ccc(C(F)(F)F)cc1 , please.
39

Tell me the measured IC50 of O=S(=O)(Nc1ccc2oc(-c3ccc(NS(=O)(=O)c4ccc(Cl)s4)cc3)nc2c1)c1ccc2ccccc2c1 , please.
7.7

Tell me the measured IC50 of O=S(=O)(Nc1ccc(-c2nc3ccccc3o2)cc1)c1ccc(Cl)c(C(F)(F)F)c1 , please.
34

Tell me the measured IC50 of CCCS(=O)(=O)Nc1ccc(-c2nc3cc(NS(=O)(=O)CCC)ccc3o2)cc1 , please.
83
